Data origin, for the record: patent US4436751A

Tested on: M. hyorhinis ATCC 23234
Experiment: Anti-mycoplasmal MIC in vitro, Friis broth agarose (Table 1)
Format: cell-based
Conditions: Mesomycoplasma hyorhinis, ATCC23234, 144 h
Item-by-item account of MIC
Provide the reading as a plain figure in µg/mL.

C/C(=C\C(=O)OC(C)c1ccc([N+](=O)[O-])cc1)CC1OCC(CC2OC2C(C)C(C)O)C(O)C1O (stereo not shown) [Example 4, 1-(p-nitrophenyl)ethyl monate A] : 0.5
C/C(=C\C(=O)OCc1cc([N+](=O)[O-])cc([N+](=O)[O-])c1C)CC1OCC(CC2OC2C(C)C(C)O)C(O)C1O (stereo not shown) [Example 7, 3,5-dinitro-2-methylbenzyl monate A] : 0.1
C/C(=C\C(=O)OCc1ccccc1[N+](=O)[O-])CC1OCC(CC2OC2C(C)C(C)O)C(O)C1O (stereo not shown) [C, O--nitrobenzyl monate A, reference compound] : 0.25

// below: MIC requested for another compound
Sample C/C(=C\C(=O)OCc1cccc([N+](=O)[O-])c1C)CC1OCC(CC2OC2C(C)C(C)O)C(O)C1O (stereo not shown) [Example 8, 2-methyl-3-nitrobenzyl monate A] ; MIC observed: 0.1

---

Tested on: M. suipneumoniae NB12
Experiment: Anti-mycoplasmal MIC in vitro, Friis broth agarose (Table 1)
Type: cell-based
Conditions: Mesomycoplasma hyopneumoniae, NB12, 144 h
Measured MIC, listed per entry.
Number only, in µg/mL; omit the unit.

Please fill in: MIC reported for C/C(=C\C(=O)OCc1cccc([N+](=O)[O-])c1)CC1OCC(C/C=C/C(C)C(C)O)C(O)C1O (centres unmarked) [Example 5, m-nitrobenzyl monate C] = 0.25

---

System: M. suipneumoniae MS 16
Test: Anti-mycoplasmal MIC in vitro, Friis broth agarose (Table 1)
Format: cell-based
Details: Mesomycoplasma hyopneumoniae, MS16, 144 h
reported property: MIC (µg/mL)
Just the number in µg/mL, nothing appended.

As a guide, the following entries are already answered.
C/C(=C\C(=O)OCc1cc([N+](=O)[O-])cc([N+](=O)[O-])c1C)CC1OCC(CC2OC2C(C)C(C)O)C(O)C1O (stereo not shown) [Example 7, 3,5-dinitro-2-methylbenzyl monate A] : 0.1
C/C(=C\C(=O)OCc1ccc([N+](=O)[O-])cc1[N+](=O)[O-])CC1OCC(CC2OC2C(C)C(C)O)C(O)C1O (stereo not shown) [Example 10, 2,4-dinitrobenzyl monate A] : 0.5
C/C(=C\C(=O)OC(C)c1ccc([N+](=O)[O-])cc1)CC1OCC(CC2OC2C(C)C(C)O)C(O)C1O (stereo not shown) [Example 4, 1-(p-nitrophenyl)ethyl monate A] : 1

Now look at this entry.
For record C/C(=C\C(=O)OCc1cccc([N+](=O)[O-])c1C)CC1OCC(CC2OC2C(C)C(C)O)C(O)C1O (stereo not shown) [Example 8, 2-methyl-3-nitrobenzyl monate A] the listed MIC is 0.1

---

Tested on: S. dublin S7
Test: Veterinary bacteria MIC, Diagnostic Sensitivity Test Agar (Table 2)
Assay type: cell-based
Conditions: Salmonella enterica; S. dublin S7; DST Agar, 10^4 organisms, 18 hours 37° C.; read-out: MIC
reported property: MIC

Field: example entries. Status: answers known.
C/C(=C\C(=O)OC(C)c1cccc([N+](=O)[O-])c1)CC1OCC(CC2OC2C(C)C(C)O)C(O)C1O (stereo not drawn) [Example 3, 1-(m-nitrophenyl)ethyl monate A] : > 80 µg/mL
C/C(=C\C(=O)OCc1cccc([N+](=O)[O-])c1)CC1OCC(C/C=C/C(C)C(C)O)C(O)C1O (stereo not drawn) [Example 5, m-nitrobenzyl monate C] : > 80 µg/mL

# ---- query compound ----
The compound listed as C/C(=C\C(=O)OC(C)c1ccc([N+](=O)[O-])cc1)CC1OCC(CC2OC2C(C)C(C)O)C(O)C1O (stereo not drawn) [Example 4, 1-(p-nitrophenyl)ethyl monate A] shows MIC equal to > 80 µg/mL

---

Here, each record is paired with measured MIC data.
System: M. suipneumoniae PW/C/210
Assay: Anti-mycoplasmal MIC in vitro, Friis broth agarose (Table 1)
Assay type: cell-based
Settings: Mesomycoplasma hyopneumoniae, 144 h
Supply the numeric figure in µg/mL, leaving out any unit text.

Illustrative cases are given below, each with its answer.
C/C(=C\C(=O)OCc1ccccc1[N+](=O)[O-])CC1OCC(CC2OC2C(C)C(C)O)C(O)C1O (stereo not shown) [C, O--nitrobenzyl monate A, reference compound] : 0.25
C/C(=C\C(=O)OCc1ccc([N+](=O)[O-])c([N+](=O)[O-])c1)CC1OCC(CC2OC2C(C)C(C)O)C(O)C1O (stereo not shown) [Example 9, 3,4-dinitrobenzyl monate A] : 0.25
C/C(=C\C(=O)OCc1ccc([N+](=O)[O-])cc1)CC1OCC(CC2OC2C(C)C(C)O)C(O)C1O (stereo not shown) [Example 1, p-nitrobenzyl monate A] : 0.05

Could you now look at the following compound, please?
get_value(item= C/C(=C\C(=O)OC(C)c1ccc([N+](=O)[O-])cc1)CC1OCC(CC2OC2C(C)C(C)O)C(O)C1O (stereo not shown) [Example 4, 1-(p-nitrophenyl)ethyl monate A] , readout=MIC) returns 1

---

Test system: M. suipneumoniae NB12
Test: Anti-mycoplasmal MIC in vitro, Friis broth agarose (Table 1)
Assay type: cell-based
Conditions: Mesomycoplasma hyopneumoniae, NB12, 144 h
Reported MIC values follow for various molecules

Study these solved cases before continuing.
C/C(=C\C(=O)OCc1ccccc1[N+](=O)[O-])CC1OCC(CC2OC2C(C)C(C)O)C(O)C1O (stereo not shown) [C, O--nitrobenzyl monate A, reference compound] : 0.5 µg/mL
C/C(=C\C(=O)OCc1cc([N+](=O)[O-])cc([N+](=O)[O-])c1C)CC1OCC(CC2OC2C(C)C(C)O)C(O)C1O (stereo not shown) [Example 7, 3,5-dinitro-2-methylbenzyl monate A] : 0.25 µg/mL
C/C(=C\C(=O)OCc1ccc([N+](=O)[O-])cc1)CC1OCC(CC2OC2C(C)C(C)O)C(O)C1O (stereo not shown) [Example 1, p-nitrobenzyl monate A] : 0.05 µg/mL

# input for lookup
Per the reported M. suipneumoniae NB12 data, C/C(=C\C(=O)OCc1cc([N+](=O)[O-])cc([N+](=O)[O-])c1)CC1OCC(CC2OC2C(C)C(C)O)C(O)C1O (stereo not shown) [Example 6, 3,5-dinitrobenzyl monate A] has MIC of 0.05 µg/mL

---

Test system: M. suipneumoniae MS 16
Assay: Anti-mycoplasmal MIC in vitro, Friis broth agarose (Table 1)
Type: cell-based
Details: Mesomycoplasma hyopneumoniae, MS16, 144 h
reported property: MIC (µg/mL)
Write down the numeric answer in µg/mL and omit the unit.

MIC reported for this molecule C/C(=C\C(=O)OCc1ccc([N+](=O)[O-])c([N+](=O)[O-])c1)CC1OCC(CC2OC2C(C)C(C)O)C(O)C1O (stereo not drawn) [Example 9, 3,4-dinitrobenzyl monate A] : 0.25

Lab note: measured MIC of C/C(=C\C(=O)OCc1cc([N+](=O)[O-])cc([N+](=O)[O-])c1)CC1OCC(CC2OC2C(C)C(C)O)C(O)C1O (stereo not drawn) [Example 6, 3,5-dinitrobenzyl monate A] was 0.025

---

Recorded MIC by entry
Tested on: M. suipneumoniae MS 16
Experiment: Anti-mycoplasmal MIC in vitro, Friis broth agarose (Table 1)
Assay type: cell-based
Details: Mesomycoplasma hyopneumoniae, MS16, 144 h
The response must be a number in µg/mL with no trailing unit.

C/C(=C\C(=O)OCc1cccc([N+](=O)[O-])c1)CC1OCC(C/C=C/C(C)C(C)O)C(O)C1O (stereo not shown) [Example 5, m-nitrobenzyl monate C] : 0.1
C/C(=C\C(=O)OCc1ccccc1[N+](=O)[O-])CC1OCC(CC2OC2C(C)C(C)O)C(O)C1O (stereo not shown) [C, O--nitrobenzyl monate A, reference compound] : 0.25
C/C(=C\C(=O)OCc1ccc([N+](=O)[O-])cc1Cl)CC1OCC(CC2OC2C(C)C(C)O)C(O)C1O (stereo not shown) [Example 11, 2-chloro-4-nitrobenzyl monate A] : 1

// C/C(=C\C(=O)OCc1ccc([N+](=O)[O-])cc1)CC1OCC(CC2OC2C(C)C(C)O)C(O)C1O (stereo not shown) [Example 1, p-nitrobenzyl monate A] : MIC value = 0.05
